tested on: MFM-223; experiment: normalised viability (% of control), CellTiter-Blue; higher = more viable cells (about 100 = DMSO control); settings: 1000 nM; incubation time: 72 h
Measurement Label: normalised viability (%)
Give bare numbers, in %.

CCS(=O)(=O)c1cccc(-c2cc(C(=O)NC3CCN(C)CC3)c(C)c3[nH]c4ncc(C)cc4c23)c1 = 34
O=c1[nH]cc(F)c(=O)[nH]1 = 98.5
CC(=O)O[C@H]1C(=O)[C@@]2(C)[C@H]([C@H](OC(=O)c3ccccc3)[C@]3(O)C[C@H](OC(=O)[C@H](O)[C@@H](NC(=O)c4ccccc4)c4ccccc4)C(C)=C1C3(C)C)[C@]1(OC(C)=O)CO[C@@H]1C[C@@H]2O = 51.7
COC1=CC(c2cc3ccccc3[nH]2)=N/C1=C\c1[nH]c(C)cc1C = 54.4
C[C@@]1(C(=O)Nc2ccc(F)nc2)CCCN1c1nc(Nc2cc(C3CC3)n[nH]2)c2cccn2n1 = 52.6

Next compound, please.
normalised viability reading for COC(=O)C[C@](O)(CCCC(C)(C)O)C(=O)O[C@@H]1C(OC)=C[C@]23CCCN2CCc2cc4c(cc2[C@H]13)OCO4 [Omacetaxine mepesuccinate] : 8.87

* * *

test system: CAL-148; test: drug sensitivity score (DSS), CellTiter-Blue viability (DSS (AUC-based score)); higher = stronger viability inhibition; extreme values may be limits of the assay; details: incubation time: 72 h
Measurement Label: drug sensitivity score
Numbers only.

These solved cases illustrate the format of a correct answer.
CC(C)(C)c1cc(NC(=O)Nc2ccc(-c3cn4c(n3)sc3cc(OCCN5CCOCC5)ccc34)cc2)no1 [Quizartinib] = 0
O=C(c1ccc(OCCN2CCCCC2)cc1)c1c(-c2ccc(O)cc2)sc2cc(O)ccc12 [Raloxifene] = 0
COc1ncc(-c2ccc3nccc(-c4ccnnc4)c3c2)cc1NS(=O)(=O)c1ccc(F)cc1F = 17.3
CC(C)C[C@H](NC(=O)[C@H](Cc1ccccc1)NC(=O)c1cnccn1)B(O)O [Bortezomib] = 17.9

Need drug sensitivity score for each of these compounds.
1. CCS(=O)(=O)c1cccc(-c2cc(C(=O)NC3CCN(C)CC3)c(C)c3[nH]c4ncc(C)cc4c23)c1 [TAK-901]
2. CCCC(CCC)C(=O)O [Valproic acid]
3. CS(=O)(=O)OCCCCOS(C)(=O)=O [Busulfan]
4. c1ccc(C2CN3CCSC3=N2)cc1 (stereo not drawn) [Tetramisole]

[0, 0, 0, 0]

* * *

test system: MDA-MB-436; experiment: normalised viability (% of control), CellTiter-Blue; higher = more viable cells (about 100 = DMSO control); conditions: 10 nM; incubation time: 72 h
Provide the reported normalised viability of each item.
Numbers only, in %.

The examples below pair each entry with its known result.
O=P(O)(NCCCl)NCCCl [Ifosfamide mustard] = 110
C#Cc1cccc(Nc2ncnc3cc(OC)c(OCCCCCCC(=O)NO)cc23)c1 = 94.7
COc1cc(Nc2ncc(F)c(Nc3ccc4c(n3)NC(=O)C(C)(C)O4)n2)cc(OC)c1OC = 84.3

// next entry
Summary for this molecule, C[C@@]1(C(=O)Nc2ccc(F)nc2)CCCN1c1nc(Nc2cc(C3CC3)n[nH]2)c2cccn2n1 : normalised viability is 122

* * *

tested on: MDA-MB-453; experiment: normalised viability (% of control), CellTiter-Blue; higher = more viable cells (about 100 = DMSO control); details: incubation time: 72 h
Measurement Label: normalised viability (%)
One number for each entry, in %.

See these solved cases before continuing.
COc1ncc(-c2ccc3nccc(-c4ccnnc4)c3c2)cc1NS(=O)(=O)c1ccc(F)cc1F (30 nM) = 12.1
CC(C)C[C@H](NC(=O)[C@H](Cc1ccccc1)NC(=O)c1cnccn1)B(O)O [Bortezomib] (30 nM) = 24
CC(=O)O[C@H]1C(=O)[C@@]2(C)[C@H]([C@H](OC(=O)c3ccccc3)[C@]3(O)C[C@H](OC(=O)[C@H](O)[C@@H](NC(=O)c4ccccc4)c4ccccc4)C(C)=C1C3(C)C)[C@]1(OC(C)=O)CO[C@@H]1C[C@@H]2O [Paclitaxel] (30 nM) = 26.1
CC(C)(C)c1cc(NC(=O)Nc2ccc(-c3cn4c(n3)sc3cc(OCCN5CCOCC5)ccc34)cc2)no1 [Quizartinib] (30 nM) = 102
COc1c(C)cnc(Cn2cnc3c(Cl)nc(N)nc32)c1C [BIIB021] (300 nM) = 17.3

Give normalised viability for all compounds that follow.
1. O=P(O)(NCCCl)NCCCl [Ifosfamide mustard] (300 nM)
2. CN1CCN(c2ccc3nc(-c4c(N)c5c(F)cccc5[nH]c4=O)[nH]c3c2)CC1 [Dovitinib] (300 nM)
3. c1ccc(C2CN3CCSC3=N2)cc1 (centres undefined) [Tetramisole] (300 nM)
4. CCOc1cc2ncc(C#N)c(Nc3ccc(OCc4ccccn4)c(Cl)c3)c2cc1NC(=O)/C=C/CN(C)C [Neratinib] (30 nM)

[114, 94.5, 103, 81.2]
